Data origin: a melting point compilation (Tetko et al.; mined from patent text by program, amines drawn as free bases though some values may be those of a salt)

// values below are reported melting point

Answered cases to consult:
Cc1cc(OC(C)c2sc(-c3ccc(C(F)(F)F)cc3F)nc2C)ccc1OC(C)(C)C(=O)O (centres undefined)
133 °C
O=[N+]([O-])c1cc(OCc2ccccc2)cc(C2CO2)c1 (centres undefined)
54 to 55 °C
Oc1cccc(CCCc2cc(C(c3ccccc3)c3ccccc3)on2)c1
114 to 117 °C
O=C(O)CCc1ccc(Oc2ccc3c(c2)S(=O)(=O)N=C2CCCN23)cc1
216 to 222 °C
Cc1ccc(-c2c(Cl)nc(C#N)n2O)cc1
212 to 215 °C

Attention now shifts to the item below.
So what's the measured melting point for this one? CCC(=O)c1ccc(Oc2ccc(-c3scc(-c4ccccc4Cl)c3CC(=O)N=C(N)N)cc2)cc1
123 to 124 °C

====

measurement.kind: melting point

Answered cases to consult:
ClCc1c2ccccc2c(Cc2ccccc2)c2ccccc12
146 to 147 °C
Cc1ccc(-c2n[nH]c(N)c2C#N)cc1
173 to 178 °C
CC[C@H](COC)n1cc(Cl)nc(N2CCc3cc(OC)cc(C#N)c32)c1=O
141 to 142 °C
Cc1cc(C#N)c(C)c(C(=O)Nc2ccc(F)cn2)n1
196 °C
COC(=O)c1cc(C2=CCCO2)c(C(F)(F)F)cc1NC(C)=O
120 to 125 °C

Attention now shifts to the item below.
So what's the measured melting point for this one? CCOC(=O)C(C(N)=O)C12CC3CC(CC(C3)C1)C2 (stereo unspecified)
97 to 98 °C

====

// values below are reported melting point

Answered cases to consult:
COC(=O)c1ccc(S(C)(=O)=O)c(C)c1Cl
107 to 108 °C
O=C(CC(F)(F)F)N[C@H]1CC[C@H](CCN2CCC(c3cccc4c3CCO4)CC2)CC1
197 °C

So what's the measured melting point for this one? CC1Nc2ccc(-c3coc(C#N)c3)cc2C(C)(C)O1 (stereo not given)
116 to 118 °C

So what's the measured melting point for this one? CC(=O)NCCCc1ccc(CN2CCN(c3ccccc3)CC2)cc1
117 to 118 °C

So what's the measured melting point for this one? CN1CCN(c2ccc(-c3[nH]nc4c3C(=O)c3c(NC(=O)NN(C)C)cccc3-4)cc2)CC1
192 °C

So what's the measured melting point for this one? COCCNC(=O)c1ccc2c(c1)C(=NNc1ccc(S(N)(=O)=O)cc1)C(=O)N2
> 230 °C

So what's the measured melting point for this one? CCN1C(=O)CC2(CNC(=O)C2)C1=O (stereo not given)
168 to 169 °C

So what's the measured melting point for this one? Cl/C(=C/n1cncn1)c1ccc(Br)cc1Cl
84 °C

So what's the measured melting point for this one? COc1cccc(-c2cc(N)c3cc(OC)ccc3n2)c1
148 to 149 °C

So what's the measured melting point for this one? COCN(c1cccc2cc(C(N)=O)n(COC)c12)S(=O)(=O)c1cccs1
203 to 204 °C

====

// values below are reported melting point

CCc1cccc(C)c1NC(=O)C(C)Br (stereo unspecified)
181 to 182 °C
COC(=O)c1scc(-c2ccccc2)c1N
64 to 66 °C
CC(=O)NC[C@H]1CN(c2ccc(N3CCSCC3)c(F)c2)C(=O)O1
186 °C
Cn1ccc(CON2C(=O)c3ccccc3C2=O)n1
122 to 124 °C
CS(=O)(=O)c1ccc(-n2nc(C(F)(F)F)cc2-c2ccc(-c3cccs3)cc2)cc1F
75 to 76 °C
CC(C)Cc1nc2ccc(C(N)=O)cc2c(-c2ccccc2)c1CN
128 to 129 °C
COc1ccc(CNc2ccc(F)c(Cl)c2)cc1OC
127 to 128 °C
O=c1cc(-c2ccccc2)oc(=O)[nH]1
> 210 °C

So what's the measured melting point for this one? COC(=O)C1=C(C)Nc2nccn2C1c1cccc(C2(C)OCCO2)c1 (stereo unspecified)
199 to 201 °C

So what's the measured melting point for this one? COCCOc1ccc(/C=C/C(=O)NS(=O)(=O)c2ccccc2Cl)c(Oc2ncc(C(F)(F)F)cc2Cl)c1
168 to 169 °C

So what's the measured melting point for this one? CC(=O)Oc1ccc(-c2ccc(O)cc2)cc1
204 to 207 °C
